system-name: human BChE (Homo sapiens, UniProt P06276)
Construct: gift of Dr. F. Nachon (Département de Toxicologie, Armed Forces Biomedical Research Institute, France)
Sequence (P06276 29-602): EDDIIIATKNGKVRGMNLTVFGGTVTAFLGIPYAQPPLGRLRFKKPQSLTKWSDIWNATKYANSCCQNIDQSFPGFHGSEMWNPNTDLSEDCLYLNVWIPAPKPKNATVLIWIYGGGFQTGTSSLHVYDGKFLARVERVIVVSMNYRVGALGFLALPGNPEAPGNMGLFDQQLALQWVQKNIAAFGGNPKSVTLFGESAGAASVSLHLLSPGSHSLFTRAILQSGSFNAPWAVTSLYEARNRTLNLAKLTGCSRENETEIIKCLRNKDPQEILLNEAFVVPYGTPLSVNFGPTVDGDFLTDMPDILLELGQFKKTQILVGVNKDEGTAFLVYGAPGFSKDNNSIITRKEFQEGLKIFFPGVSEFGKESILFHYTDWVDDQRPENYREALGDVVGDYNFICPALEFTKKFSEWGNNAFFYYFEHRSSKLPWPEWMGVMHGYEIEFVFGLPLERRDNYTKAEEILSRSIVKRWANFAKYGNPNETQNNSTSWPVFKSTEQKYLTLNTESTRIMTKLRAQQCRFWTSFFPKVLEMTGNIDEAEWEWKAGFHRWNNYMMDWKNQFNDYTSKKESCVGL
protocol-notes: Reversible inhibition of human BChE, Ellman method with ATCh, Hunter-Downs analysis
Type: biochemical
study-conditions: inhibition selectivity, ratio of Ki constants for AChE and BChE
readout-type: Ki(AChE)/ Ki (BChE)
No unit in the answer, only the number.

As a guide, the following entries are already answered.
{"columns": ["molecule", "experimental-value"],
 "data": [
  ["C=CC1C[N+]2(Cc3ccc(Br)cc3)CCC1CC2C(O)c1ccnc2ccccc12 (centres unmarked) [CN-(pBr)]", 8.8],
  ["C=CC1C[N+]2(Cc3cccc(Cl)c3)CCC1CC2C(O)c1ccnc2ccccc12 (centres unmarked) [CN-(mCl)]", 10],
  ["C=CC1C[N+]2(Cc3ccc(C)cc3)CCC1CC2C(O)c1ccnc2ccccc12 (centres unmarked) [CD-(pCH3)]", 99],
  ["C=CC1C[N+]2(Cc3ccc(Cl)cc3)CCC1CC2C(O)c1ccnc2ccccc12 (centres unmarked) [CD-(pCl)]", 350],
  ["C=CC1C[N+]2(Cc3cccc(Br)c3)CCC1CC2C(O)c1ccnc2ccccc12 (centres unmarked) [CD-(mBr), N-(3-bromobenzyl) cinchonidinium bromide]", 33],
  ["C=CC1C[N+]2(Cc3ccc(Cl)cc3)CCC1CC2C(O)c1ccnc2ccccc12 (centres unmarked) [CN-(pCl)]", 6.4]
]}

Shift focus to the following entry.
## Task Can you look up the measured Ki(AChE)/ Ki (BChE) of C=CC1C[N+]2(Cc3cccc(C)c3)CCC1CC2C(O)c1ccnc2ccccc12 (centres unmarked) [CD-(mCH3)] for me?
## Result 39

###

system-name: human BChE (Homo sapiens, UniProt P06276)
Construct: gift of Dr. F. Nachon (Département de Toxicologie, Armed Forces Biomedical Research Institute, France)
protocol-notes: Reversible inhibition of human BChE, Ellman method with ATCh, Hunter-Downs analysis
Format: biochemical
Set-up: key: c, n and m stands for competitive, noncompetitive and mixed type of inhibition; c, n and m stands for competitive, noncompetitive and mixed type of inhibition; c, n and m stands for competitive, noncompetitive and mixed type of inhibition
study-conditions: symbol in brackets after Ki
readout-type: BChE type of inhibition

These recorded examples may help you get a feel for the data.
{"columns": ["compound", "system-name", "BChE type of inhibition"],
 "data": [
  ["C=CC1C[N+]2(Cc3ccc(Br)cc3)CCC1CC2C(O)c1ccnc2ccccc12 (stereo not shown) [CD-(pBr)]", "human BChE (Homo sapiens, UniProt P06276)", "c"],
  ["C=CC1C[N+]2(C)CCC1CC2C(O)c1ccnc2ccccc12 (stereo not shown) [CD-Met]", "human BChE (Homo sapiens, UniProt P06276)", "c"],
  ["C=CC1C[N+]2(Cc3cccc(Br)c3)CCC1CC2C(O)c1ccnc2ccccc12 (stereo not shown) [CD-(mBr), N-(3-bromobenzyl) cinchonidinium bromide]", "human BChE (Homo sapiens, UniProt P06276)", "m"],
  ["C=CC1C[N+]2(Cc3cccc(Br)c3)CCC1CC2C(O)c1ccnc2ccccc12 (stereo not shown) [CN-(mBr)]", "human BChE (Homo sapiens, UniProt P06276)", "m"],
  ["C=CC1C[N+]2(Cc3ccccc3)CCC1CC2C(O)c1ccnc2ccccc12 (stereo not shown) [CD-Bzl]", "human BChE (Homo sapiens, UniProt P06276)", "c"],
  ["C=CC1C[N+]2(C)CCC1CC2C(O)c1ccnc2ccccc12 (stereo not shown) [CN-Met]", "human BChE (Homo sapiens, UniProt P06276)", "c"],
  ["C=CC1C[N+]2(Cc3ccc(C)cc3)CCC1CC2C(O)c1ccnc2ccccc12 (stereo not shown) [CD-(pCH3)]", "human BChE (Homo sapiens, UniProt P06276)", "m"],
  ["C=CC1C[N+]2(Cc3ccc(Br)cc3)CCC1CC2C(O)c1ccnc2ccccc12 (stereo not shown) [CN-(pBr)]", "human BChE (Homo sapiens, UniProt P06276)", "c"],
  ["C=C[C@H]1C[N@@]2CC[C@H]1C[C@@H]2[C@@H](O)c1ccnc2ccccc12 [CN, cinchonine, reference compound]", "human BChE (Homo sapiens, UniProt P06276)", "c"],
  ["C=CC1C[N+]2(Cc3cccc(Cl)c3)CCC1CC2C(O)c1ccnc2ccccc12 (stereo not shown) [CD-(mCl)]", "human BChE (Homo sapiens, UniProt P06276)", "m"]
]}

## Task Which BChE type of inhibition reading was recorded for the compound C=CC1C[N+]2(Cc3ccc([N+](=O)[O-])cc3)CCC1CC2C(O)c1ccnc2ccccc12 (stereo not shown) [CD-(pNO2)] ?
## Result c

## Task Give the measured BChE type of inhibition of C=CC1C[N+]2(Cc3ccc(Cl)cc3)CCC1CC2C(O)c1ccnc2ccccc12 (stereo not shown) [CN-(pCl)] .
## Result m

## Task Give its BChE type of inhibition value. Item: C=CC1C[N+]2(Cc3cccc(C)c3)CCC1CC2C(O)c1ccnc2ccccc12 (stereo not shown) [CN-(mCH3), N-(3-methylbenzyl) cinchoninium bromide]
## Result m
